Target: T1, SEQ ID NO: 346 glycopeptide with TF-antigen at Ser5 (not fully specified (residue 5))
T1 construct: also called S5^TF
T1 peptide: HGVTSAPDTRPAPGSTAPP
Experiment: ELISA on coated glycopeptide, antibody 0.01 mg/ml, mean of 3
Where no end group is shown, it is not given here.
Below, each entry is listed with its recorded ELISA absorbance at 450 nm.
Lab book: enter the figure in absorbance, no units written.

The recorded ELISA absorbance at 450 nm for M3 (antibody, human IgG1, lambda, V domains shown, Human IgG) VH: QLQLQESGPGLVKPSETLSLTCTVSGGSISSSSYYWGWIRQPPGKGLEWIGSIYYSGSTHYNPSLKSRVTISVDTSKNQFSLKLRSVTAADTAVYYCARGVVEVRGNHYYYYYMDVWGKGTTVTVSS VL: QSVLTQPPSVSGAPGQRVTISCTGSSSNIGAGYDVHWYQQLPGTAPKLLIYGNSYRPSGVPDRFSGSKSGTSASLAITGLQAEDEADYYCQSYDSSLSGSGVFGGGTKLTVLG is 0.1

Entry M7 (antibody, human IgG1, kappa, V domains shown, Human IgG) VH: EVQLVESGGGLVQPGGSLRLSCAASGFTVSSNYMSWVRQAPGKGLEWVSVIYSGGSTYYADSVKGRFTISRDNSKNTLYLQMNSLRAEDTAVYYCARGSTNTYYYDSSGHPWGQGTMVTVSS VL: DIVMTQSPLSLPATPGEPASISCRSSQSLLHSNGYTYLDWYLQKPGQSPQVLIYLASNRASGVPDRFSGSGSGTNFTLKISRVEAEDVGLFYCMQALQTPQTFGQGTKLEIKR , ELISA absorbance at 450 nm reported as 0.1

ELISA absorbance at 450 nm measured on M22 (antibody, human IgG1, kappa, V domains shown, Human IgG) VH: EVQLVESGGGLVQPGGSLRLSCAASGFTVSSNYMSWVRQAPGKGLEWVSVIYSGGTTYYADSVKGRFTISRHNSKNTLYLQMNSLRAEDTAVYYCARDHDPDYGGYYMDVWGKGTTVTVSS VL: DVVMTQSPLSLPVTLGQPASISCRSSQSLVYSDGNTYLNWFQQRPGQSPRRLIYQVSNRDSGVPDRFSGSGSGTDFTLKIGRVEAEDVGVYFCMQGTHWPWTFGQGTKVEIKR = 2.2

Consider M20 (antibody, human IgG1, kappa, V domains shown, Human IgG) VH: EVQLVESGGGLVQPGGSLRLSCAASGFTFSSYWMHWVRQAPGKGLVWVSHINSDGSSTSYADSVKGRFTISRDNAKNTLYLQMNSLRAEDTAVYYCARELADWGQGTLVTVSS VL: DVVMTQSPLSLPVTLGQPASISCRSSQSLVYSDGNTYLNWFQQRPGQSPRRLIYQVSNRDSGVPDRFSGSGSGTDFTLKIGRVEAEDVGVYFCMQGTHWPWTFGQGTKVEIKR . Its measured ELISA absorbance at 450 nm is 2.1

ELISA absorbance at 450 nm reported for this binder M21 (antibody, human IgG1, kappa, V domains shown, Human IgG) VH: EVQLVESGGGLVQPGGSLRLSCAASGFTVSSNYMSWVRQAPGKGLEWVSVIYSGGSTYYADSVKGRFTISRDNSKNTLYLQMNSLRAEDTAVYYCARDQEHYFDGSGYYVDYWGQGTLVTVSS VL: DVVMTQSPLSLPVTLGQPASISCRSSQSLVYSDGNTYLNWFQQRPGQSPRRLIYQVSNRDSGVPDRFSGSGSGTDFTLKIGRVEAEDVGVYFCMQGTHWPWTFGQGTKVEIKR : 2.1
